Test: aqueous thermodynamic solubility
Assay type: physicochemical
Conditions: PBS pH 7.4, 24 h, 25°C

molecule | result_unit | solubility thermodynamic at 24 h
O=C(Nc1cccc(OC(F)(F)F)c1)c1c(O)n(-c2ccccc2)c(=S)n(-c2ccccc2)c1=O [3f] | µM | 30

---

Test: plasma protein binding (rapid equilibrium dialysis), mouse
Assay type: in vitro ADME
Conditions: pH 7.4

compound | fraction unbound at 3 h
O=C(Nc1cccc(OC(F)(F)F)c1)c1c(O)n(-c2ccccc2)c(=S)n(-c2ccccc2)c1=O [3f] | < 0.01

---

Test: aqueous kinetic solubility
Type: physicochemical
Details: PBS, pH 7.4, PBS pH 7.4, target 250 µM, 2.5% DMSO, 25°C

compound | result_unit | comparator | solubility kinetic at 24 h
COc1cccc(CCNC(=O)c2c(O)n(-c3ccccc3)c(=S)n(-c3ccccc3)c2=O)c1 [5e] | µM | = | 122
O=C(Nc1cccc(C(F)F)c1)c1c(O)n(-c2ccccc2)c(=S)n(-c2ccccc2)c1=O [3i] | µM | > | 200
O=C(Nc1cccc(OC(F)F)c1)c1c(O)n(-c2ccccc2)c(=S)n(-c2ccccc2)c1=O [3g] | µM | > | 200
COc1cccc(NC(=O)c2c(O)n(-c3ccccc3)c(=S)n(-c3ccccc3)c2=O)c1 [ARN16267] | µM | = | 236
CC(F)(F)c1cccc(NC(=O)c2c(O)n(-c3ccccc3)c(=S)n(-c3ccccc3)c2=O)c1 [3h] | µM | = | 6
CC(C)Oc1cccc(NC(=O)c2c(O)n(-c3ccccc3)c(=S)n(-c3ccccc3)c2=O)c1 [3b] | µM | = | 34
O=C(Nc1cccc(OC(F)(F)F)c1)c1c(O)n(-c2ccccc2)c(=S)n(-c2ccccc2)c1=O [3f] | µM | > | 200

---

Test: plasma protein binding (rapid equilibrium dialysis), human
Format: in vitro ADME
Settings: pH 7.4

chem_smiles | fraction unbound at 3 h
O=C(Nc1cccc(OC(F)(F)F)c1)c1c(O)n(-c2ccccc2)c(=S)n(-c2ccccc2)c1=O | < 0.01

---

pIC50: recorded values
Biological target: human topoIIα (Homo sapiens, UniProt P11388)
Construct: purchased Inspiralis
Sequence (P11388 whole entry): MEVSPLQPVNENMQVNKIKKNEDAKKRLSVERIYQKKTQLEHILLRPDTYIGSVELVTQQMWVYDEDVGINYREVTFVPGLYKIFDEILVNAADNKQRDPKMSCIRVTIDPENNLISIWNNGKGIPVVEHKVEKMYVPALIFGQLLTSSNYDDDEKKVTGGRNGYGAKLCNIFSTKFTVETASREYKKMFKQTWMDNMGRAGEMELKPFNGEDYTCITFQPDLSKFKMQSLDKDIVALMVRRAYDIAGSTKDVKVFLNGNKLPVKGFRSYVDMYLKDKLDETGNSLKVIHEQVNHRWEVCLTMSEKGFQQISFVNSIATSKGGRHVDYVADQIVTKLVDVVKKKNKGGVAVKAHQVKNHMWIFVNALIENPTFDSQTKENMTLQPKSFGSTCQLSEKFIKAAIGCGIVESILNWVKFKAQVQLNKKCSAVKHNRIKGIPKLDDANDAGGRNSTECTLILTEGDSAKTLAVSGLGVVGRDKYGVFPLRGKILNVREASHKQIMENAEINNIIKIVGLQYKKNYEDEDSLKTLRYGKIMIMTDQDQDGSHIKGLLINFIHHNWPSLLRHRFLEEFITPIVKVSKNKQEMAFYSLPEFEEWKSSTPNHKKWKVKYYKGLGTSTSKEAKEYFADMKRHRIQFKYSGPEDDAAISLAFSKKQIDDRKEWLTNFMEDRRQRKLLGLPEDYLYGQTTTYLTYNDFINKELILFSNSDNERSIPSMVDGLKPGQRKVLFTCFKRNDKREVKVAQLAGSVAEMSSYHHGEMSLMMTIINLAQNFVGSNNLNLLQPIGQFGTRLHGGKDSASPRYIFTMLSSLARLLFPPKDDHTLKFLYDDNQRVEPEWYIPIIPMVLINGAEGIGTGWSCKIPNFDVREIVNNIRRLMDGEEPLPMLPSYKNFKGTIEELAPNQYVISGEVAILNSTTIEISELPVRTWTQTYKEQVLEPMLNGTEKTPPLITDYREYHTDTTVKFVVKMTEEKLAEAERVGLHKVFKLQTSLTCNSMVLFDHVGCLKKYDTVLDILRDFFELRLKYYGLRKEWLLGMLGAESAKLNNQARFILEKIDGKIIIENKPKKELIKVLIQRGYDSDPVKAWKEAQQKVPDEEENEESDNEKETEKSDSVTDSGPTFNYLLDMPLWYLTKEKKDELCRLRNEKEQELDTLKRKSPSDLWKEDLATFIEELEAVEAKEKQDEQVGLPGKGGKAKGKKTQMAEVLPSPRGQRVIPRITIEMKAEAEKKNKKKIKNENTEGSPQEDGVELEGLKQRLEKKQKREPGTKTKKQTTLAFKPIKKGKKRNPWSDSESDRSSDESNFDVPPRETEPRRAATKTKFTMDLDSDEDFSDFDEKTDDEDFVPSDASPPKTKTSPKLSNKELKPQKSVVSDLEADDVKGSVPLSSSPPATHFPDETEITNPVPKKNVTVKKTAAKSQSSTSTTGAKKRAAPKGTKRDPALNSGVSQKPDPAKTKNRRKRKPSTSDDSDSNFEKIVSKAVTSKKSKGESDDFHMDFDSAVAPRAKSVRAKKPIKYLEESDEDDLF
Test: topoII decatenation assay (Inspiralis)
Assay type: biochemical
Settings: human topoIIα decatenation assay; mean ± SD of two independent experiments; read-out: IC50
Procedure: We measured the inhibitor activity of our new compounds against human topoIIα, using a topoII decatenation assay (Table 1). The activity of topoIIα was measured using a decatenation assay (Inspiralis) following the manufacturer’s instructions. […] Reaction products were resolved by electrophoresis in 1% agarose gels containing SYBR Safe DNA stain (Invitrogen), scanned, and quantified using the ChemiDoc system (BioRad). […]
pIC50: −log10 of the molar value.
quantity: pIC50

chem_smiles | study_target | quantity | value_reported
COc1cc(/C=C/CNC(=O)c2c(O)n(-c3ccccc3)c(=S)n(-c3ccccc3)c2=O)cc(OC)c1O | human topoIIα (Homo sapiens, UniProt P11388) | pIC50 | 4.55
O=C(Nc1cccc(OC(F)F)c1)c1c(O)n(-c2ccccc2)c(=S)n(-c2ccccc2)c1=O | human topoIIα (Homo sapiens, UniProt P11388) | pIC50 | 4.99
COc1cc(CNC(=O)c2c(O)n(-c3ccccc3)c(=S)n(-c3ccccc3)c2=O)cc(OC)c1O | human topoIIα (Homo sapiens, UniProt P11388) | pIC50 | 3.97
COc1cc(CCNC(=O)c2c(O)n(-c3ccccc3)c(=S)n(-c3ccccc3)c2=O)cc(OC)c1O | human topoIIα (Homo sapiens, UniProt P11388) | pIC50 | 4.13
COc1cccc(/C=C/CNC(=O)c2c(O)n(-c3ccccc3)c(=S)n(-c3ccccc3)c2=O)c1 | human topoIIα (Homo sapiens, UniProt P11388) | pIC50 | 5.08
O=C(Nc1cccc([N+](=O)[O-])c1)c1c(O)n(-c2ccccc2)c(=S)n(-c2ccccc2)c1=O | human topoIIα (Homo sapiens, UniProt P11388) | pIC50 | 4.99
N#Cc1cccc(NC(=O)c2c(O)n(-c3ccccc3)c(=S)n(-c3ccccc3)c2=O)c1 | human topoIIα (Homo sapiens, UniProt P11388) | pIC50 | 4.84
O=C(Nc1cccc(F)c1)c1c(O)n(-c2ccccc2)c(=S)n(-c2ccccc2)c1=O | human topoIIα (Homo sapiens, UniProt P11388) | pIC50 | 4.82
COc1cccc(CNC(=O)c2c(O)n(-c3ccccc3)c(=S)n(-c3ccccc3)c2=O)c1 | human topoIIα (Homo sapiens, UniProt P11388) | pIC50 | 4.65
COc1cc(NC(=O)c2c(O)n(-c3ccccc3)c(=S)n(-c3ccccc3)c2=O)ccc1F | human topoIIα (Homo sapiens, UniProt P11388) | pIC50 | 4.65
O=C(Nc1cccc(OC(F)(F)F)c1)c1c(O)n(-c2ccccc2)c(=S)n(-c2ccccc2)c1=O | human topoIIα (Homo sapiens, UniProt P11388) | pIC50 | 5.14
CCOc1cccc(NC(=O)c2c(O)n(-c3ccccc3)c(=S)n(-c3ccccc3)c2=O)c1 | human topoIIα (Homo sapiens, UniProt P11388) | pIC50 | 4.91
CC(F)(F)c1cccc(NC(=O)c2c(O)n(-c3ccccc3)c(=S)n(-c3ccccc3)c2=O)c1 | human topoIIα (Homo sapiens, UniProt P11388) | pIC50 | 5.04
O=C(Nc1cccc(C(F)F)c1)c1c(O)n(-c2ccccc2)c(=S)n(-c2ccccc2)c1=O | human topoIIα (Homo sapiens, UniProt P11388) | pIC50 | 4.94
O=C1NC(=S)NC(=O)C1C(=O)Nc1ccccc1 | human topoIIα (Homo sapiens, UniProt P11388) | pIC50 | 4.59
COc1cccc(NC(=O)c2c(O)n(-c3ccccc3)c(=S)n(-c3ccccc3)c2=O)c1 | human topoIIα (Homo sapiens, UniProt P11388) | pIC50 | 4.79
COc1cccc(CCNC(=O)c2c(O)n(-c3ccccc3)c(=S)n(-c3ccccc3)c2=O)c1 | human topoIIα (Homo sapiens, UniProt P11388) | pIC50 | 4.80
CC(C)Oc1cccc(NC(=O)c2c(O)n(-c3ccccc3)c(=S)n(-c3ccccc3)c2=O)c1 | human topoIIα (Homo sapiens, UniProt P11388) | pIC50 | 5.01

---

Test system: HeLa cells
Assay: cell viability MTT assay, HeLa
Assay type: cell-based, human
Conditions: Homo sapiens, HeLa, HeLa cervical cancer cells, mean ± SD of two experiments, read-out: HeLa antiproliferative activity IC50
IC50: recorded values
quantity: IC50 (µM)

chem_smiles | comparator | value_reported
COc1cccc(CCNC(=O)c2c(O)n(-c3ccccc3)c(=S)n(-c3ccccc3)c2=O)c1 | < | 5
COc1cccc(CNC(=O)c2c(O)n(-c3ccccc3)c(=S)n(-c3ccccc3)c2=O)c1 | = | 6.1
O=C(Nc1cccc([N+](=O)[O-])c1)c1c(O)n(-c2ccccc2)c(=S)n(-c2ccccc2)c1=O | = | 11.9
COc1cccc(NC(=O)c2c(O)n(-c3ccccc3)c(=S)n(-c3ccccc3)c2=O)c1 | = | 5.5
CC(F)(F)c1cccc(NC(=O)c2c(O)n(-c3ccccc3)c(=S)n(-c3ccccc3)c2=O)c1 | < | 5
COc1cc(/C=C/CNC(=O)c2c(O)n(-c3ccccc3)c(=S)n(-c3ccccc3)c2=O)cc(OC)c1O | = | 9.3
COc1cc(CNC(=O)c2c(O)n(-c3ccccc3)c(=S)n(-c3ccccc3)c2=O)cc(OC)c1O | = | 19.1
CCOc1cccc(NC(=O)c2c(O)n(-c3ccccc3)c(=S)n(-c3ccccc3)c2=O)c1 | = | 5.2
O=C(Nc1cccc(C(F)F)c1)c1c(O)n(-c2ccccc2)c(=S)n(-c2ccccc2)c1=O | = | 4.9
O=C(Nc1cccc(OC(F)F)c1)c1c(O)n(-c2ccccc2)c(=S)n(-c2ccccc2)c1=O | = | 6.4
O=C(Nc1cccc(F)c1)c1c(O)n(-c2ccccc2)c(=S)n(-c2ccccc2)c1=O | = | 5.6
COc1cc(CCNC(=O)c2c(O)n(-c3ccccc3)c(=S)n(-c3ccccc3)c2=O)cc(OC)c1O | = | 13.3
CC(C)Oc1cccc(NC(=O)c2c(O)n(-c3ccccc3)c(=S)n(-c3ccccc3)c2=O)c1 | = | 4.2
COc1cccc(/C=C/CNC(=O)c2c(O)n(-c3ccccc3)c(=S)n(-c3ccccc3)c2=O)c1 | = | 5.5
O=C(Nc1cccc(OC(F)(F)F)c1)c1c(O)n(-c2ccccc2)c(=S)n(-c2ccccc2)c1=O | < | 5
COc1cc(NC(=O)c2c(O)n(-c3ccccc3)c(=S)n(-c3ccccc3)c2=O)ccc1F | = | 5.3
N#Cc1cccc(NC(=O)c2c(O)n(-c3ccccc3)c(=S)n(-c3ccccc3)c2=O)c1 | = | 12.4

---

Assay: in vivo pharmacokinetics in mice
Conditions: male, C57B6/J, plasma; mouse, po 10 mg/kg vs iv 3 mg/kg, based on AUC from t = 0 to 240 min; read-out: bioavailability F
quantity: bioavailability

chem_smiles | quantity | value_reported
O=C(Nc1cccc(OC(F)(F)F)c1)c1c(O)n(-c2ccccc2)c(=S)n(-c2ccccc2)c1=O | bioavailability | 8%
